- tgt: ZFP SBS#780 (synthetic)
- Sequence (chain, as listed by the source): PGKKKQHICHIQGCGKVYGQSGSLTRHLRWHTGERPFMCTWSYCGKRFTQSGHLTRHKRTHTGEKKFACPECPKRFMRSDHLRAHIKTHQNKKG
- assay_details: EMSA
- assay_context: tags: MBP fusion
measurement_type: Kd (pM)
Write the value in pM as a bare number.

Looking up CGGGGAGCAG (dsDNA) DNA 1: CGGGGAGCAG DNA 2: CTGCTCCCCG , I see its Kd listed as 500
